# Test system: HCT-116 colon
# procedureText: NCI tumour cell line growth inhibition, 48 h
parameterMeasured: TGI

These solved cases illustrate the format of a correct answer.
response.value for O=c1onc(Nc2ccccc2)n1-c1ccccc1 (field: TGI) = > 100 µM

response.value for O=C1c2cc3ncsc3cc2C(=O)c2c(O)ccc(O)c21 (field: TGI) = > 100 µM

response.value for N/C(CC(=O)NOC(=O)c1ccccc1)=N/OC(=O)c1ccccc1 (field: TGI) = > 100 µM

Now for a further molecule.
response.value for COC(=O)C(/C(=N\O)C(=O)Nc1ccc(Br)cc1)c1nc2ccccc2[nH]c1=O (centres undefined) (field: TGI) = > 100 µM

Ref: PubChem BioAssay (NCI)
